Let's look at some compounds and their measured IC50.
System: Huh-7 cell line
procedure summary: Resazurin cell growth inhibition assay, Huh-7
Type: cell-based, human
protocol conditions: Homo sapiens, Huh-7, 48 h, resazurin assay, 48 h, M ± SEM of three independent experiments; read-out: Cytotoxic activity IC50, Huh-7 cell line

{"columns": ["compound", "IC50 [µg/mL]"],
 "data": [
  ["COc1cc(-c2nc(N3N=C(c4c5ccccc5cc5ccccc45)CC3c3ccc(F)cc3)[nH]c(=O)c2C#N)cc(OC)c1OC (stereo not shown) [Compound 4m]", 7.5],
  ["N#Cc1c(-c2ccc(F)cc2)nc(NN)[nH]c1=O [Compound 2b]", 21.6],
  ["N#Cc1c(-c2ccc(F)cc2)nc(N2N=C(c3c4ccccc4cc4ccccc34)CC2c2ccc(F)cc2)[nH]c1=O (stereo not shown) [Compound 4e]", 6.13],
  ["O=C(/C=C/c1ccc(F)cc1)c1c2ccccc2cc2ccccc12 [Compound 3a]", 21.8],
  ["CN(C)c1ccc(-c2nc(N3N=C(c4c5ccccc5cc5ccccc45)CC3c3ccc(N(C)C)cc3)[nH]c(=O)c2C#N)cc1 (stereo not shown) [Compound 4r]", 7.61],
  ["COc1cc(-c2nc(N3N=C(c4c5ccccc5cc5ccccc45)CC3c3c[nH]c4ccccc34)[nH]c(=O)c2C#N)cc(OC)c1OC (stereo not shown) [Compound 4p]", 8.14],
  ["N#Cc1c(-c2c[nH]c3ccccc23)nc(NN)[nH]c1=O [Compound 2c]", 21.3]
]}

###

procedure summary: Resazurin cell growth inhibition assay, normal fibroblast cells
Type: cell-based
protocol conditions: M ± SEM of three independent experiments, read-out: Cytotoxic activity IC50, Fibroblast
readout name: IC50 at 48 h (µg/mL)

{"columns": ["compound", "readout name", "quantity unit", "test value"],
 "data": [
  ["CN(C)c1ccc(C2CC(c3c4ccccc4cc4ccccc34)=NN2c2nc(-c3ccccc3)c(C#N)c(=O)[nH]2)cc1 (stereo not drawn)", "IC50 at 48 h", "µg/mL", 33],
  ["COc1cc(-c2nc(N3N=C(c4c5ccccc5cc5ccccc45)CC3c3c[nH]c4ccccc34)[nH]c(=O)c2C#N)cc(OC)c1OC (stereo not drawn)", "IC50 at 48 h", "µg/mL", 18.2],
  ["N#Cc1c(-c2ccccc2)nc(N2N=C(c3c4ccccc4cc4ccccc34)CC2c2ccc(F)cc2)[nH]c1=O (stereo not drawn)", "IC50 at 48 h", "µg/mL", 32.3],
  ["N#Cc1c(-c2ccccc2)nc(NN)[nH]c1=O", "IC50 at 48 h", "µg/mL", 40],
  ["COc1cc(/C=C/C(=O)c2c3ccccc3cc3ccccc23)cc(OC)c1OC", "IC50 at 48 h", "µg/mL", 40.8],
  ["CN(C)c1ccc(C2CC(c3c4ccccc4cc4ccccc34)=NN2c2nc(-c3c[nH]c4ccccc34)c(C#N)c(=O)[nH]2)cc1 (stereo not drawn)", "IC50 at 48 h", "µg/mL", 34.1],
  ["CN(C)c1ccc(C2CC(c3c4ccccc4cc4ccccc34)=NN2c2nc(-c3ccc(F)cc3)c(C#N)c(=O)[nH]2)cc1 (stereo not drawn)", "IC50 at 48 h", "µg/mL", 33.1],
  ["COc1cc(C2CC(c3c4ccccc4cc4ccccc34)=NN2c2nc(-c3ccc(N(C)C)cc3)c(C#N)c(=O)[nH]2)cc(OC)c1OC (stereo not drawn)", "IC50 at 48 h", "µg/mL", 20.3],
  ["O=C(/C=C/c1c[nH]c2ccccc12)c1c2ccccc2cc2ccccc12", "IC50 at 48 h", "µg/mL", 40.8],
  ["O=C(/C=C/c1ccc(F)cc1)c1c2ccccc2cc2ccccc12", "IC50 at 48 h", "µg/mL", 40.6],
  ["CN(C)c1ccc(-c2nc(N3N=C(c4c5ccccc5cc5ccccc45)CC3c3ccc(F)cc3)[nH]c(=O)c2C#N)cc1 (stereo not drawn)", "IC50 at 48 h", "µg/mL", 34.3],
  ["N#Cc1c(-c2ccc(F)cc2)nc(NN)[nH]c1=O", "IC50 at 48 h", "µg/mL", 40.6],
  ["COc1cc(C2CC(c3c4ccccc4cc4ccccc34)=NN2c2nc(-c3ccccc3)c(C#N)c(=O)[nH]2)cc(OC)c1OC (stereo not drawn)", "IC50 at 48 h", "µg/mL", 29.3],
  ["COc1cc(C2CC(c3c4ccccc4cc4ccccc34)=NN2c2nc(-c3c[nH]c4ccccc34)c(C#N)c(=O)[nH]2)cc(OC)c1OC (stereo not drawn)", "IC50 at 48 h", "µg/mL", 27],
  ["COc1cccc2c1C(=O)c1c(O)c3c(c(O)c1C2=O)C[C@@](O)(C(=O)CO)C[C@@H]3O[C@H]1C[C@H](N)[C@H](O)[C@H](C)O1 [Doxorubicin, reference compound]", "IC50 at 48 h", "µg/mL", 24.1],
  ["N#Cc1c(-c2c[nH]c3ccccc23)nc(N2N=C(c3c4ccccc4cc4ccccc34)CC2c2ccc(F)cc2)[nH]c1=O (stereo not drawn)", "IC50 at 48 h", "µg/mL", 31.4],
  ["N#Cc1c(-c2ccccc2)nc(N2N=C(c3c4ccccc4cc4ccccc34)CC2c2c[nH]c3ccccc23)[nH]c1=O (stereo not drawn)", "IC50 at 48 h", "µg/mL", 21.5],
  ["COc1cc(-c2nc(N3N=C(c4c5ccccc5cc5ccccc45)CC3c3cc(OC)c(OC)c(OC)c3)[nH]c(=O)c2C#N)cc(OC)c1OC (stereo not drawn)", "IC50 at 48 h", "µg/mL", 28.1],
  ["CN(C)c1ccc(-c2nc(N3N=C(c4c5ccccc5cc5ccccc45)CC3c3c[nH]c4ccccc34)[nH]c(=O)c2C#N)cc1 (stereo not drawn)", "IC50 at 48 h", "µg/mL", 23.5],
  ["COc1cc(-c2nc(N3N=C(c4c5ccccc5cc5ccccc45)CC3c3ccc(N(C)C)cc3)[nH]c(=O)c2C#N)cc(OC)c1OC (stereo not drawn)", "IC50 at 48 h", "µg/mL", 18.6],
  ["N#Cc1c(-c2ccc(F)cc2)nc(N2N=C(c3c4ccccc4cc4ccccc34)CC2c2ccc(F)cc2)[nH]c1=O (stereo not drawn)", "IC50 at 48 h", "µg/mL", 24.1],
  ["CN(C)c1ccc(-c2nc(N3N=C(c4c5ccccc5cc5ccccc45)CC3c3ccc(N(C)C)cc3)[nH]c(=O)c2C#N)cc1 (stereo not drawn)", "IC50 at 48 h", "µg/mL", 25.2],
  ["CN(C)c1ccc(-c2nc(NN)[nH]c(=O)c2C#N)cc1", "IC50 at 48 h", "µg/mL", 40.4],
  ["COc1cc(-c2nc(NN)[nH]c(=O)c2C#N)cc(OC)c1OC", "IC50 at 48 h", "µg/mL", 40.1],
  ["COc1cc(-c2nc(N3N=C(c4c5ccccc5cc5ccccc45)CC3c3ccc(F)cc3)[nH]c(=O)c2C#N)cc(OC)c1OC (stereo not drawn)", "IC50 at 48 h", "µg/mL", 24.1],
  ["COc1cc(C2CC(c3c4ccccc4cc4ccccc34)=NN2c2nc(-c3ccc(F)cc3)c(C#N)c(=O)[nH]2)cc(OC)c1OC (stereo not drawn)", "IC50 at 48 h", "µg/mL", 25.3],
  ["CN(C)c1ccc(/C=C/C(=O)c2c3ccccc3cc3ccccc23)cc1", "IC50 at 48 h", "µg/mL", 40.7],
  ["N#Cc1c(-c2c[nH]c3ccccc23)nc(NN)[nH]c1=O", "IC50 at 48 h", "µg/mL", 40.2],
  ["N#Cc1c(-c2c[nH]c3ccccc23)nc(N2N=C(c3c4ccccc4cc4ccccc34)CC2c2c[nH]c3ccccc23)[nH]c1=O (stereo not drawn)", "IC50 at 48 h", "µg/mL", 20.2],
  ["N#Cc1c(-c2ccc(F)cc2)nc(N2N=C(c3c4ccccc4cc4ccccc34)CC2c2c[nH]c3ccccc23)[nH]c1=O (stereo not drawn)", "IC50 at 48 h", "µg/mL", 23.5]
]}
